Taken from paper PMC9316000.

Assay: Pharmacokinetics after single-dose intravenous administration in rats
Assay type: in vivo, Sprague Dawley rats
Conditions: Sprague Dawley, rat, plasma; male rats, S-IV 3.25 mg/kg
Procedure: The PK parameters after the intravenous administration of 3.25 mg/kg HY-071085 (before use, prepared with 5% DMSO + 95% normal saline mixture) are listed in Table 1. In vivo PK profiling in the rats: Sprague Dawley rats (approximately 177–221 g in weight) were purchased from Shanghai Xipur-Bikai Experimental Animal Co., Ltd. (Shanghai, China). […] According to the obtained plasma concentration time data, the pharmacokinetic parameters were calculated using Phoenix WinNonlin 8.1 software. […]
endpoint: AUC(0-inf) (ng·h/mL)
Answer in ng·h/mL, number only, no unit symbol.

GET /value?item= CC1(C)OC2CC(=O)OCC23C1C/C(=N\OCCN1CCOCC1)C1(C)C3CC[C@@]2(C)[C@H](c3ccoc3)OC(=O)C3OC312 (stereo partly shown) &field=AUC(0-inf) returns 740
